B1: PPP2R2C (parent)
chain: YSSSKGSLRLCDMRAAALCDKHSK

Variants of: B1
EXPERIMENT SUMMARY: protein stability index of a GFP-peptide fusion (GPS, HEK-293T) (PSI 1-6); higher = more stable;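 further: lentivirally expressed fusions sorted by FACS into six bins by GFP to DsRed ratio, PSI derived from sequencing read proportions per bin multiplied by bin number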
EXPERIMENTAL CONTEXT: c terminus: a fixed tail appended
Label y when protein stability index is at or above 2; anything below gets n.

Can L8Y be said to have protein stability index at or above 2?
n

I'd appreciate it if you could say whether H22E has protein stability index at least equal to 2.
y

Check the entry C11I : does protein stability index equal or exceed 2?
n

Evaluate S3F : protein stability index at minimum 2?
y

Textbook exercise: given the entry D20K , state whether its protein stability index is greater than or equal to 2.
y

Determine whether measured protein stability index meets or exceeds 2 for C19Q
n

API: above_or_equal(metric=protein stability index, cutoff=2) for item K24L
y

Assess whether reported protein stability index for K5W sits at 2 or higher.
y

Item A15K with protein stability index of 2 or above?
n

Kindly determine if protein stability index recorded for S4E is above or exactly 2.
y

Form field: protein stability index at least 2? Entry: Y1D
y

// inclusive: protein stability index at least 2? input: G6Y
n

Quick check, protein stability index >= 2? R9Q
y

Can S4F be said to have protein stability index at or above 2?
y

Reported protein stability index at or above 2? S4V
y

Threshold query (protein stability index >= 2) on S4A
y

Check if protein stability index >= 2 (inclusive). Item: A16W
n

Given K24I , state whether its protein stability index is at least 2.
y
